Biological target: recombinant human MMP-7 (Homo sapiens (Human), UniProt P09237)
Sequence (P09237 95-267): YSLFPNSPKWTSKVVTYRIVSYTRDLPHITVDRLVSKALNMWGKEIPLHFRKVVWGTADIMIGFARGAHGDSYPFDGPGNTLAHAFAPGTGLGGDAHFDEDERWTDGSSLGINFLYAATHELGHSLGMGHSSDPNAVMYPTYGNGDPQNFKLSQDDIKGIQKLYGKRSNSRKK
Experiment: MMP selectivity assay, MMP-7
Conditions: Table 2 selectivity profile; read-out: MMP-7 Activity (IC50 class)
IC50 reference

[[record]]
compound = "Cc1cc(COc2ccc(Sc3ccncc3C3NC(=O)NC3=O)c(Cl)c2)ccn1 (centres unmarked)"
readout = "IC50"
recordedresult = "> 1 µM"


Entry Cc1cc(COc2ccc(Sc3ccsc3C3NC(=O)NC3=O)cc2)ccn1 (centres unmarked) needs its IC50 filled in; supply it.
> 1 µM

###

IC50 reference
Biological target: recombinant human MMP-12 catalytic domain (Homo sapiens (Human))
Sequence (P39900 106-268): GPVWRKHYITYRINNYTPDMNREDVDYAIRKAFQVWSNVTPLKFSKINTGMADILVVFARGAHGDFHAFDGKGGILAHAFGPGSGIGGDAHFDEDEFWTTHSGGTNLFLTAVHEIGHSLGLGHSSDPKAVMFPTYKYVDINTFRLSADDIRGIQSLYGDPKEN
Experiment: MMP-12 inhibitory assay (fluorogenic substrate cleavage)
Type: biochemical
Conditions: readout at 30 minutes, 37° C., pH 7.5; Table 1; read-out: MMP-12 IC50

Entry Cc1cc(COc2ccc(Sc3ccncc3C3NC(=O)NC3=O)cc2C)ccn1 (centres unmarked) [PC-48] needs its IC50 filled in; supply it.
< 10 nM

Entry O=C1NC(=O)C(c2sccc2Sc2ccc(OCc3ccc(CO)cc3)cc2)N1 (centres unmarked) [TC6] needs its IC50 filled in; supply it.
< 10 nM

Entry NC(=O)c1cc(COc2ccc(Sc3cnccc3C3NC(=O)NC3=O)cc2)ccn1 (centres unmarked) [PC-59] needs its IC50 filled in; supply it.
100 to 1000 nM

Entry O=C1NC(=O)C(c2cnccc2Sc2ccc(OCc3cccc(O)c3)cc2)N1 (centres unmarked) [PC-10] needs its IC50 filled in; supply it.
< 10 nM

Entry O=C1NC(=O)C(c2ccncc2Sc2ccc(OCc3cccc(CO)c3)cc2)N1 (centres unmarked) [PC-13] needs its IC50 filled in; supply it.
< 10 nM

Entry Cc1cc(COc2ccc(Sc3ccsc3C3NC(=O)NC3=O)cc2)ccn1 (centres unmarked) [TC8] needs its IC50 filled in; supply it.
< 10 nM
